experimental_details: Solid state (thermolytic) stability of TBR-760 salt forms, open container, UPLC peak purity and appearance
Format: physicochemical
experimental_conditions: 60° C., open dish, 3 d
Experimental: […] The stability of each salt form was assessed by monitoring the post-exposure drug peak purity and by evaluating the post-exposure visual appearance of the salt. […]
Structures can show the parent of a compound that is named as a salt.
experimental_readout: Appearance, T = 3 d

* CCCN1C[C@H](CSCC(=O)NCCCC[C@@H](NC(=O)CSC[C@@H]2C[C@@H]3c4cccc5[nH]cc(c45)C[C@H]3N(CCC)C2)C(=O)N[C@H]2CSSC[C@@H](C(=O)N[C@H](C(N)=O)[C@@H](C)O)NC(=O)[C@H](CC)NC(=O)[C@H](CCCCN)NC(=O)[C@@H](Cc3c[nH]c4ccccc34)NC(=O)[C@H](Cc3ccc(O)cc3)NC2=O)C[C@@H]2c3cccc4[nH]cc(c34)C[C@H]21 [TBR-760 sulfate] | White
* CCCN1C[C@H](CSCC(=O)NCCCC[C@@H](NC(=O)CSC[C@@H]2C[C@@H]3c4cccc5[nH]cc(c45)C[C@H]3N(CCC)C2)C(=O)N[C@H]2CSSC[C@@H](C(=O)N[C@H](C(N)=O)[C@@H](C)O)NC(=O)[C@H](CC)NC(=O)[C@H](CCCCN)NC(=O)[C@@H](Cc3c[nH]c4ccccc34)NC(=O)[C@H](Cc3ccc(O)cc3)NC2=O)C[C@@H]2c3cccc4[nH]cc(c34)C[C@H]21 [TBR-760 acetate] | White
* CCCN1C[C@H](CSCC(=O)NCCCC[C@@H](NC(=O)CSC[C@@H]2C[C@@H]3c4cccc5[nH]cc(c45)C[C@H]3N(CCC)C2)C(=O)N[C@H]2CSSC[C@@H](C(=O)N[C@H](C(N)=O)[C@@H](C)O)NC(=O)[C@H](CC)NC(=O)[C@H](CCCCN)NC(=O)[C@@H](Cc3c[nH]c4ccccc34)NC(=O)[C@H](Cc3ccc(O)cc3)NC2=O)C[C@@H]2c3cccc4[nH]cc(c34)C[C@H]21 [TBR-760 chloride, hydrochloride salt] | White

Source: patent US20210338782A1
